# protocol notes: Dynamic light scattering (DLS) of mRNA/peptoid formulations: particle size and polydispersity
# Assay type: physicochemical
# study conditions: size polydispersity index by DLS; Fluc mRNA/peptoid formulation, 5:1 mass ratio
property: Size PDI

Observe how each entry below is paired with its result.
{"smiles": "CCCCCCCCCCN(CC(N)=O)C(=O)CN(CCCCCCCCCC)C(=O)CN(CCc1ccccc1)C(=O)CN(CCc1ccccc1)C(=O)CN(CCN)C(=O)CN(CCc1ccccc1)C(=O)CN(CCc1ccccc1)C(=O)CN(CCN)C(=O)CN(CCc1ccccc1)C(=O)CN(CCc1ccccc1)C(=O)CNCCN", "Size PDI": 0.128}
{"smiles": "CCCCCCCCCCN(CC(N)=O)C(=O)CN(CCCCCCCCCC)C(=O)CN(CCCCCCCCCC)C(=O)CN(CCCCCCCCCC)C(=O)CN(CCc1ccccc1)C(=O)CN(CCc1ccccc1)C(=O)CN(CC1CCNCC1)C(=O)CN(CCc1ccccc1)C(=O)CN(CCc1ccccc1)C(=O)CN(CC1CCNCC1)C(=O)CN(CCc1ccccc1)C(=O)CN(CCc1ccccc1)C(=O)CN(CC1CCNCC1)C(=O)CN(CCc1ccccc1)C(=O)CN(CCc1ccccc1)C(=O)CNCC1CCNCC1", "Size PDI": 0.274}

a = CCCCCCCCCCCCN(CC(N)=O)C(=O)CN(CCCCCCCCCCCC)C(=O)CN(CCc1ccccc1)C(=O)CN(CCc1ccccc1)C(=O)CN(CCN)C(=O)CN(CCc1ccccc1)C(=O)CN(CCc1ccccc1)C(=O)CN(CCN)C(=O)CN(CCc1ccccc1)C(=O)CN(CCc1ccccc1)C(=O)CNCCN
b = CCCCCCCCCCN(CC(N)=O)C(=O)CN(CCCCCCCCCC)C(=O)CN(CCc1ccccc1)C(=O)CN(CCc1ccccc1)C(=O)CNCCN
a or b : whose Size PDI is greater? Reply briefly: the label of your chosen item.
a

###

# protocol notes: Dynamic light scattering (DLS) of mRNA/peptoid formulations: particle size and polydispersity
# Type: physicochemical
# study conditions: size polydispersity index by DLS; Fluc mRNA/peptoid formulation, 5:1 mass ratio
property: Size PDI
In your answer, state the number alone without any accompanying words.

{"smiles": "CCCCCCCCCCCCCCCCCCN(CC(N)=O)C(=O)CN(CCCCCCCCCCCCCCCCCC)C(=O)CN(CCc1ccccc1)C(=O)CN(CCc1ccccc1)C(=O)CN(CCN)C(=O)CN(CCc1ccccc1)C(=O)CN(CCc1ccccc1)C(=O)CN(CCN)C(=O)CN(CCc1ccccc1)C(=O)CN(CCc1ccccc1)C(=O)CNCCN", "Size PDI": 0.308}

Size PDI recorded for this compound, CCCCCCCCCCN(CC(N)=O)C(=O)CN(CCCCCCCCCC)C(=O)CN(CCc1ccccc1)C(=O)CN(CCc1ccccc1)C(=O)CN(CC1CCNCC1)C(=O)CN(CCc1ccccc1)C(=O)CN(CCc1ccccc1)C(=O)CN(CC1CCNCC1)C(=O)CN(CCc1ccccc1)C(=O)CN(CCc1ccccc1)C(=O)CNCC1CCNCC1 , is 0.048

###

# protocol notes: MTT viability assay after treatment with Fluc mRNA/amino lipidated peptoid formulations
# Type: cell-based
# study conditions: human, HeLa cells, Relative Viability (%) No PEG
property: viability at 8 h, 500 ng/well (%)
Report only the number, with the unit % understood.

Observe how each entry below is paired with its result.
{"compound": "CCCCCCCCN(CC(N)=O)C(=O)CN(CCCCCCCC)C(=O)CN(CCc1ccccc1)C(=O)CN(CCc1ccccc1)C(=O)CN(CCN)C(=O)CN(CCc1ccccc1)C(=O)CN(CCc1ccccc1)C(=O)CN(CCN)C(=O)CN(CCc1ccccc1)C(=O)CN(CCc1ccccc1)C(=O)CNCCN [Compound 1]", "viability at 8 h, 500 ng/well [%]": 97.4}
{"compound": "CCCCCCCCCCN(CC(N)=O)C(=O)CN(CCCCCCCCCC)C(=O)CN(CCCCCCCCCC)C(=O)CN(CCCCCCCCCC)C(=O)CN(CCc1ccccc1)C(=O)CN(CCc1ccccc1)C(=O)CN(CC1CCCN1)C(=O)CN(CCc1ccccc1)C(=O)CN(CCc1ccccc1)C(=O)CN(CC1CCCN1)C(=O)CN(CCc1ccccc1)C(=O)CN(CCc1ccccc1)C(=O)CNCC1CCCN1 (centres unmarked) [Compound 34]", "viability at 8 h, 500 ng/well [%]": 67.6}
{"compound": "CCCCCCCCCCN(CC(N)=O)C(=O)CN(CCCCCCCCCC)C(=O)CN(CCCCCCCCCC)C(=O)CN(CCCCCCCCCC)C(=O)CN(CCc1ccccc1)C(=O)CN(CCc1ccccc1)C(=O)CN(CCN)C(=O)CN(CCc1ccccc1)C(=O)CN(CCc1ccccc1)C(=O)CN(CCN)C(=O)CN(CCc1ccccc1)C(=O)CN(CCc1ccccc1)C(=O)CNCCN [Compound 8]", "viability at 8 h, 500 ng/well [%]": 92}
{"compound": "CCCCCCCCCCN(CC(N)=O)C(=O)CN(CCCCCCCCCC)C(=O)CN(CCN)C(=O)CN(CCN)C(=O)CN(CCN)C(=O)CN(CCN)C(=O)CNCCN [Compound 15]", "viability at 8 h, 500 ng/well [%]": 91.2}
{"compound": "CCCCCCCCCCN(CC(N)=O)C(=O)CN(CCCCCCCCCC)C(=O)CN(CCc1ccccc1)C(=O)CN(CCN)C(=O)CN(CCc1ccccc1)C(=O)CN(CCN)C(=O)CN(CCc1ccccc1)C(=O)CNCCN [Compound 13]", "viability at 8 h, 500 ng/well [%]": 90.2}

viability at 8 h, 500 ng/well recorded for this compound, CCCCCCCCCCN(CC(N)=O)C(=O)CN(CCCCCCCCCC)C(=O)CN(CCN)C(=O)CN(CCN)C(=O)CN(CCN)C(=O)CN(CCN)C(=O)CN(CCN)C(=O)CN(CCN)C(=O)CN(CCN)C(=O)CN(CCN)C(=O)CNCCN [Compound 16] , is 89.4

viability at 8 h, 500 ng/well recorded for this compound, CCCCCCCCCCN(CC(N)=O)C(=O)CN(CCCCCCCCCC)C(=O)CN(CCc1ccccc1)C(=O)CN(CCc1ccccc1)C(=O)CN(CCNC)C(=O)CN(CCc1ccccc1)C(=O)CN(CCc1ccccc1)C(=O)CN(CCNC)C(=O)CN(CCc1ccccc1)C(=O)CN(CCc1ccccc1)C(=O)CNCCNC [Compound 27] , is 93.9

viability at 8 h, 500 ng/well recorded for this compound, CCCCCCCCCCN(CC(N)=O)C(=O)CN(CCCCCCCCCC)C(=O)CN(CCCCCCCCCC)C(=O)CN(CCCCCCCCCC)C(=O)CN(CCc1ccccc1)C(=O)CN(CCc1ccccc1)C(=O)CN(CCNC)C(=O)CN(CCc1ccccc1)C(=O)CN(CCc1ccccc1)C(=O)CN(CCNC)C(=O)CN(CCc1ccccc1)C(=O)CN(CCc1ccccc1)C(=O)CN(CCNC)C(=O)CN(CCc1ccccc1)C(=O)CN(CCc1ccccc1)C(=O)CNCCNC [Compound 26] , is 98.8

###

# Test system: HeLa cells
# protocol notes: In vitro expression of firefly luciferase (Fluc) after treatment with Fluc mRNA/amino lipidated peptoid formulations, no PEG or 2% DMG-PEG2000
# Assay type: cell-based
# study conditions: with 2% (w/w) DMG-PEG2000, peptoid:mRNA 5:1, 6 h after treatment
property: Luciferase Expression (RLU) 6 h
Report only the number, with the unit RLU understood.

{"molecule": "CCCCCCCCCCN(CC(N)=O)C(=O)CN(CCCCCCCCCC)C(=O)CN(CCCCCCCCCC)C(=O)CN(CCCCCCCCCC)C(=O)CN(CCc1ccccc1)C(=O)CN(CCc1ccccc1)C(=O)CN(CC1CCNCC1)C(=O)CN(CCc1ccccc1)C(=O)CN(CCc1ccccc1)C(=O)CN(CC1CCNCC1)C(=O)CN(CCc1ccccc1)C(=O)CN(CCc1ccccc1)C(=O)CNCC1CCNCC1", "unit abbrev": "RLU", "Luciferase Expression (RLU) 6 h": "4.30E+02"}
{"molecule": "CCCCCCCCCCN(CC(N)=O)C(=O)CN(CCCCCCCCCC)C(=O)CN(CCc1ccccc1)C(=O)CN(CCc1ccccc1)C(=O)CN(CC1CCCN1)C(=O)CN(CCc1ccccc1)C(=O)CN(CCc1ccccc1)C(=O)CN(CC1CCCN1)C(=O)CN(CCc1ccccc1)C(=O)CN(CCc1ccccc1)C(=O)CNCC1CCCN1 (stereo not drawn)", "unit abbrev": "RLU", "Luciferase Expression (RLU) 6 h": "3.36E+02"}

// moving on: another record for Luciferase Expression (RLU) 6 h
Luciferase Expression (RLU) 6 h recorded for this molecule, CCCCCCCCCCN(CC(N)=O)C(=O)CN(CCCCCCCCCC)C(=O)CN(CCCCCCCCCC)C(=O)CN(CCCCCCCCCC)C(=O)CN(CCCCCCCCCC)C(=O)CN(CCCCCCCCCC)C(=O)CN(CCCCCCCCCC)C(=O)CN(CCc1ccccc1)C(=O)CN(CCc1ccccc1)C(=O)CN(CCN)C(=O)CN(CCc1ccccc1)C(=O)CN(CCc1ccccc1)C(=O)CN(CCN)C(=O)CN(CCc1ccccc1)C(=O)CN(CCc1ccccc1)C(=O)CNCCN , is 2.53E+01
